System name: PARP (Mus musculus, UniProt P11103)
Construct: PARP Activity in Cultured Macrophages, Using a Whole-Cell Based Assay
Sequence (P11103 whole entry): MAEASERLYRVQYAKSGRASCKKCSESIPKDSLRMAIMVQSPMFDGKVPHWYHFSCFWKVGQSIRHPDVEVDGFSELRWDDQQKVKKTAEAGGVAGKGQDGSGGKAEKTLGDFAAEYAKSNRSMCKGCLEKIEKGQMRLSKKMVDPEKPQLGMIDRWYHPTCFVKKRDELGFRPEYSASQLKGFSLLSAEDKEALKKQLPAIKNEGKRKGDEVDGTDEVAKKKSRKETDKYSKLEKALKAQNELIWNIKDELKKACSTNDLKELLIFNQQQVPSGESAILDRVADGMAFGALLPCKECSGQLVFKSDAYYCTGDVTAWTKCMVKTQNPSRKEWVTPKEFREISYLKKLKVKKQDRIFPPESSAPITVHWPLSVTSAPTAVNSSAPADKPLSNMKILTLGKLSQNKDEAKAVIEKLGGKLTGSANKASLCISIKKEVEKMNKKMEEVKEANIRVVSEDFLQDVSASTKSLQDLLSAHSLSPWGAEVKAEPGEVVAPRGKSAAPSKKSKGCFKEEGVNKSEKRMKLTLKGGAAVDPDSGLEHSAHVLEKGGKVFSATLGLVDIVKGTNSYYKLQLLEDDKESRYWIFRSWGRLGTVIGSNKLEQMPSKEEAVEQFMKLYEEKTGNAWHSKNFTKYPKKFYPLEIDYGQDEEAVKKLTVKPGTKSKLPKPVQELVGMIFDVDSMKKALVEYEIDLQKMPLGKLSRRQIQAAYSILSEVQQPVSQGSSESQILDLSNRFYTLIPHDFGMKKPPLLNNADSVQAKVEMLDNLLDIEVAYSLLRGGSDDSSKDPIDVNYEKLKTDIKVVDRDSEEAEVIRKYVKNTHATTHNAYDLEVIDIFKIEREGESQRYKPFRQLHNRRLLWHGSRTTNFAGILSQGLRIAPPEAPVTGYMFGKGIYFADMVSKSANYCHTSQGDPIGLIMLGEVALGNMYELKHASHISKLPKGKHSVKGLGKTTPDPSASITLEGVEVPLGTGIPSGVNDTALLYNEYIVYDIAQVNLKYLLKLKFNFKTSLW
Method description: PARP activity in cultured macrophages, whole-cell based assay (3H-NAD+ incorporation after hydrogen peroxide)
Applied conditions: murine RAW macrophages; compound 1 hour prior to hydrogen peroxide (0.5 mM) for 25 minutes; PARP activity by 3H-NAD+
pEC50: −log10 of the molar value. Where a name gives a salt, the structure may show the parent alone.
Assay metric: pEC50

a. O=c1[nH]c2c(c3ccccc13)Cc1cc(CN3CCC(F)(F)CC3)ccc1-2 [Methylsulfonate salt of IIIb-15]
b. CCCCN1CCN(Cc2ccc3c(c2)Cc2c-3[nH]c(=O)c3ccccc23)CC1 [IIIb-2]
c. O=c1[nH]c2c(c3ccc(F)cc13)Cc1c(CNC3CCCC3)cccc1-2 [Va-3]
d. O=c1[nH]c2c(c3ccccc13)Cc1c(CNC3(CO)CCCC3)cc(F)cc1-2 [Va-9]
e. O=c1[nH]c2c(c3c(F)cccc13)Cc1c(CNC3CCCC3)cccc1-2 [Va-7]
Kindly sort the 5 compounds above from the smallest to the largest pEC50. Provide your answer as the labels ordered per the instruction.
a, b, c, e, d
(a: 7.26, b: 7.60, c: 8.05, e: 8.30, d: 8.52)

P. C=CCN1CCN(Cc2ccc3c(c2)Cc2c-3[nH]c(=O)c3ccccc23)CC1 [IIb-1]
Q. O=c1[nH]c2c(c3ccccc13)Cc1c(CN3CCN(c4ncccn4)CC3)cccc1-2 [IIIa-8]
R. O=c1[nH]c2c(c3ccccc13)Cc1c(CN3CCN(CC4CC4)CC3)cccc1-2 [IIIa-3]
Order by pEC50, ascending. Provide your answer as the labels ordered per the instruction.
Q, P, R

I. CC(C)N1CCN(Cc2ccc3c(c2)Cc2c-3[nH]c(=O)c3ccccc23)CC1 [IIIb-1]
II. CCOCCN1CCN(Cc2ccc3c(c2)Cc2c-3[nH]c(=O)c3ccccc23)CC1 [IIIb-10]
For the pair I and II , which entry has the numerically smaller recorded pEC50? # reply format: chosen label
II

I. O=c1[nH]c2c(c3ccccc13)Cc1cc(CN3CCN(CC4CC4)CC3)ccc1-2 [Dihydrochloride salt of IIIb-3]
II. O=c1[nH]c2c(c3cccc(F)c13)Cc1c(CNC3CCCC3)cccc1-2 [Va-4]
III. O=c1[nH]c2c(c3ccccc13)Cc1c(CNCCN3CCCC3)cccc1-2 [IIIa-5]
IV. O=c1[nH]c2c(c3ccccc13)Cc1cc(CN3CCN(C4CCCC4)CC3)ccc1-2 [IIIb-9, dihydrochloride]
V. O=C(CN1CCN(Cc2ccc3c(c2)Cc2c-3[nH]c(=O)c3ccccc23)CC1)N1CCCC1 [IIb-157]
# desc sort on pEC50 across 5 compounds Provide your answer as the labels ordered per the instruction.
II, I, IV, III, V
(II: 8.40, I: 8.00, IV: 7.70, III: 7.40, V: 7.12)
